- target: xanthine oxidase (Homo sapiens)
- experimentNotes: Xanthine oxidase inhibitory activity, 96 well plate, kinetic reading at 295 nm
- Assay type: biochemical
- studyConditions: compound concentration 0.03 μM
resultType: PERCENT XANTHINE OXIDASE INHIBITION (%)
Numeric only. Scale: %

Consider the compound shown here: N#Cc1cc(-c2nnn[nH]2)ccc1C(=O)Nc1cccnc1 What is its recorded PERCENT XANTHINE OXIDASE INHIBITION?
23

Consider the compound shown here: O=C(Nc1ccc(Cl)cc1)c1ccc(-c2nnn[nH]2)cc1 What is its recorded PERCENT XANTHINE OXIDASE INHIBITION?
46

Consider the compound shown here: COc1cccc(NC(=O)c2ccc(-c3nnn[nH]3)cc2)c1 What is its recorded PERCENT XANTHINE OXIDASE INHIBITION?
21

Consider the compound shown here: O=C(Nc1ccc(F)cc1F)c1ccc(-c2nnn[nH]2)cc1 What is its recorded PERCENT XANTHINE OXIDASE INHIBITION?
23

Consider the compound shown here: O=C(O)c1cccc(NC(=O)c2ccc(-c3nnn[nH]3)cc2)c1 What is its recorded PERCENT XANTHINE OXIDASE INHIBITION?
38

Consider the compound shown here: O=C(Nc1ccccc1F)c1ccc(-c2nnn[nH]2)cc1 What is its recorded PERCENT XANTHINE OXIDASE INHIBITION?
20

---

- target: xanthine oxidase (Homo sapiens)
- experimentNotes: Xanthine oxidase inhibitory activity, 96 well plate, kinetic reading at 295 nm
- Type: biochemical
- studyConditions: compound concentration 1 μM
Please provide measured PERCENT XANTHINE OXIDASE INHIBITION for the entries that follow.
Numeric only. Scale: %

Consider the compound shown here: O=C(Nc1ccccc1)Nc1ccc(-c2nnn[nH]2)cc1 [IU] What is its recorded PERCENT XANTHINE OXIDASE INHIBITION?
42

Consider the compound shown here: CCc1cccc(NC(=O)c2ccc(-c3nnn[nH]3)cc2)c1 [IE] What is its recorded PERCENT XANTHINE OXIDASE INHIBITION?
87

Consider the compound shown here: C#CCCCOC(=O)c1ccc(-c2nnn[nH]2)cc1 [GM] What is its recorded PERCENT XANTHINE OXIDASE INHIBITION?
76

Consider the compound shown here: O=C(OCC(F)(F)C(F)F)c1ccc(-c2nnn[nH]2)cc1 [GP] What is its recorded PERCENT XANTHINE OXIDASE INHIBITION?
92

---

Please provide measured PERCENT XANTHINE OXIDASE INHIBITION for the entries that follow.
- target: UniProt P47989
- experimentNotes: Xanthine oxidase inhibitory activity, 96 well plate, kinetic reading at 295 nm
- Format: biochemical
- studyConditions: compound concentration 1 μM
Numeric only. Scale: %

Value wanted: PERCENT XANTHINE OXIDASE INHIBITION (UniProt P47989) of entry CCC#CCOC(=O)c1ccc(-c2nnn[nH]2)cc1
78

Value wanted: PERCENT XANTHINE OXIDASE INHIBITION (UniProt P47989) of entry O=C(O)c1cccc(NC(=O)c2ccc(-c3nnn[nH]3)cc2)c1
94

Value wanted: PERCENT XANTHINE OXIDASE INHIBITION (UniProt P47989) of entry O=C(O)Cc1cccc(NC(=O)c2ccc(-c3nnn[nH]3)cc2)c1
72

Value wanted: PERCENT XANTHINE OXIDASE INHIBITION (UniProt P47989) of entry COc1ccccc1NC(=O)c1ccc(-c2nnn[nH]2)cc1
55

Value wanted: PERCENT XANTHINE OXIDASE INHIBITION (UniProt P47989) of entry CC(C)COc1ccc(-c2nn[nH]n2)cc1
88

Value wanted: PERCENT XANTHINE OXIDASE INHIBITION (UniProt P47989) of entry CC(C)(C)c1ccc(NC(=O)c2ccc(-c3nnn[nH]3)cc2)cc1
83

Value wanted: PERCENT XANTHINE OXIDASE INHIBITION (UniProt P47989) of entry O=C(Oc1cccc(Br)c1)c1ccc(-c2nnn[nH]2)cc1
94

Value wanted: PERCENT XANTHINE OXIDASE INHIBITION (UniProt P47989) of entry N#Cc1cc(-c2nnn[nH]2)ccc1C(=O)Nc1nccs1
79

Value wanted: PERCENT XANTHINE OXIDASE INHIBITION (UniProt P47989) of entry O=C(OCC(Cl)(Cl)Cl)c1ccc(-c2nnn[nH]2)cc1
95

Value wanted: PERCENT XANTHINE OXIDASE INHIBITION (UniProt P47989) of entry O=C(OC1CCC2CCCCC2C1)c1ccc(-c2nnn[nH]2)cc1 (stereo not shown)
76

Value wanted: PERCENT XANTHINE OXIDASE INHIBITION (UniProt P47989) of entry O=C(OCC(F)(F)F)c1ccc(-c2nnn[nH]2)cc1
99

Value wanted: PERCENT XANTHINE OXIDASE INHIBITION (UniProt P47989) of entry O=C(Nc1ccc(F)cc1)c1ccc(-c2nnn[nH]2)cc1
92

Value wanted: PERCENT XANTHINE OXIDASE INHIBITION (UniProt P47989) of entry O=C(NC1CCCCC1)c1ccc(-c2nnn[nH]2)cc1
61

Value wanted: PERCENT XANTHINE OXIDASE INHIBITION (UniProt P47989) of entry CC(C)Cc1ccc(NC(=O)c2ccc(-c3nnn[nH]3)cc2)cc1
93

Value wanted: PERCENT XANTHINE OXIDASE INHIBITION (UniProt P47989) of entry O=C(OCC1CC1)c1ccc(-c2nnn[nH]2)cc1
82

Value wanted: PERCENT XANTHINE OXIDASE INHIBITION (UniProt P47989) of entry O=C(OCC12CC3CC(CC(C3)C1)C2)c1ccc(-c2nnn[nH]2)cc1
100

Value wanted: PERCENT XANTHINE OXIDASE INHIBITION (UniProt P47989) of entry O=C(Nc1cccc(I)c1)c1ccc(-c2nnn[nH]2)cc1
88

Value wanted: PERCENT XANTHINE OXIDASE INHIBITION (UniProt P47989) of entry CCOC(=O)c1ccc(-c2nnn[nH]2)cc1
64

Value wanted: PERCENT XANTHINE OXIDASE INHIBITION (UniProt P47989) of entry O=C(NCc1cccnc1)c1ccc(-c2nnn[nH]2)cc1
25

Value wanted: PERCENT XANTHINE OXIDASE INHIBITION (UniProt P47989) of entry O=C(OCc1cccc(Cl)c1)c1ccc(-c2nnn[nH]2)cc1
79

Value wanted: PERCENT XANTHINE OXIDASE INHIBITION (UniProt P47989) of entry O=C(Nc1cccc(F)c1)c1ccc(-c2nnn[nH]2)cc1
89

Value wanted: PERCENT XANTHINE OXIDASE INHIBITION (UniProt P47989) of entry CC(C)c1ccccc1NC(=O)c1ccc(-c2nnn[nH]2)cc1
16

---

- target: xanthine oxidase (Homo sapiens)
- experimentNotes: Xanthine oxidase inhibitory activity, 96 well plate, kinetic reading at 295 nm
- Assay type: biochemical
- studyConditions: compound concentration 0.03 μM
resultType: PERCENT XANTHINE OXIDASE INHIBITION (%)
Numeric only. Scale: %

Consider the molecule shown here: CCc1ccc(NC(=O)c2ccc(-c3nnn[nH]3)cc2)cc1 What is its recorded PERCENT XANTHINE OXIDASE INHIBITION?
16

Consider the molecule shown here: CCc1cccc(NC(=O)c2ccc(-c3nnn[nH]3)cc2)c1 What is its recorded PERCENT XANTHINE OXIDASE INHIBITION?
22

Consider the molecule shown here: N#Cc1cc(-c2nnn[nH]2)ccc1C(=O)Nc1nccs1 What is its recorded PERCENT XANTHINE OXIDASE INHIBITION?
19

Consider the molecule shown here: O=C(Nc1ccccc1)Nc1ccc(-c2nnn[nH]2)cc1 What is its recorded PERCENT XANTHINE OXIDASE INHIBITION?
3

Consider the molecule shown here: CC(C)Cc1ccc(NC(=O)c2ccc(-c3nnn[nH]3)cc2)cc1 What is its recorded PERCENT XANTHINE OXIDASE INHIBITION?
33

Consider the molecule shown here: COc1ccccc1NC(=O)c1ccc(-c2nnn[nH]2)cc1 What is its recorded PERCENT XANTHINE OXIDASE INHIBITION?
9

Consider the molecule shown here: CC(C)(C)c1ccc(NC(=O)c2ccc(-c3nnn[nH]3)cc2)cc1 What is its recorded PERCENT XANTHINE OXIDASE INHIBITION?
18

---

Please provide measured PERCENT XANTHINE OXIDASE INHIBITION for the entries that follow.
- target: xanthine oxidase (Homo sapiens, UniProt P47989)
- Sequence (P47989 whole entry, species assumed): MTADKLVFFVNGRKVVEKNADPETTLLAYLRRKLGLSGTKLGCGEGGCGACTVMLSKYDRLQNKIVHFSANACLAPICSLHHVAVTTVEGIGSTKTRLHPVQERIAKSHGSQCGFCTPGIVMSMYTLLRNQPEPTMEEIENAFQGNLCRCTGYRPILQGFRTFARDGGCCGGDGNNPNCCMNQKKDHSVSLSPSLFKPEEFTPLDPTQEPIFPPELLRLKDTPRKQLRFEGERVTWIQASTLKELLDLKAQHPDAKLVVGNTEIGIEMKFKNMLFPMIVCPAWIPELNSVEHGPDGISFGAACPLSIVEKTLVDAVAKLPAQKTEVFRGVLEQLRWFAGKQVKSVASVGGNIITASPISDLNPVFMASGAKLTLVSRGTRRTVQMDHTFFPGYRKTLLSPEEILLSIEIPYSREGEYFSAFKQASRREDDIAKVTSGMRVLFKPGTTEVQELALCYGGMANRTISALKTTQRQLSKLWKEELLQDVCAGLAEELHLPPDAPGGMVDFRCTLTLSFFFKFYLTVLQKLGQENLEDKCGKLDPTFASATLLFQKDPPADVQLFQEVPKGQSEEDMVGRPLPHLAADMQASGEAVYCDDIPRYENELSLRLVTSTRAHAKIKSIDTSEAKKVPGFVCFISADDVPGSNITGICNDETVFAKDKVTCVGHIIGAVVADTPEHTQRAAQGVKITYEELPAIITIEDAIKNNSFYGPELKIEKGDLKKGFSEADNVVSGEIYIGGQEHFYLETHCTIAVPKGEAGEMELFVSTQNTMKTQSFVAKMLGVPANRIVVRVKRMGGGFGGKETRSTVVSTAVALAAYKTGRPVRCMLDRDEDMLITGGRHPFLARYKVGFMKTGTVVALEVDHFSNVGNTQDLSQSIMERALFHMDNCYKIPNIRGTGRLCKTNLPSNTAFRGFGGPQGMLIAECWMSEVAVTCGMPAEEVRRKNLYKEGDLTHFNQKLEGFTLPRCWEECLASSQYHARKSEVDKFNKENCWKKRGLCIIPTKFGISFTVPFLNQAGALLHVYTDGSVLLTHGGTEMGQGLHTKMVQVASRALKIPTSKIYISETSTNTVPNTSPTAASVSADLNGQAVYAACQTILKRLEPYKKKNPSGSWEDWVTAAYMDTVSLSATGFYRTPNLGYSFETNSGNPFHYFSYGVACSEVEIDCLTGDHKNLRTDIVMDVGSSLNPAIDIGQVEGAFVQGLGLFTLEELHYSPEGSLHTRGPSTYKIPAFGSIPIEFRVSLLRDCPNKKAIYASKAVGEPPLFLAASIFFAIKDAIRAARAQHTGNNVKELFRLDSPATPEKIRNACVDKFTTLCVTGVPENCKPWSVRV
- experimentNotes: Xanthine oxidase inhibitory activity, 96 well plate, kinetic reading at 295 nm
- Format: biochemical
- studyConditions: compound concentration 100 μM
Your reply should be a number followed by the unit it is expressed in.

Consider the molecule shown here: CCCCCCOC(=O)c1ccc(-c2nnn[nH]2)cc1 [GF] What is its recorded PERCENT XANTHINE OXIDASE INHIBITION?
97%

Consider the molecule shown here: CC(C)OC(=O)c1ccc(-c2nnn[nH]2)cc1 [FZ] What is its recorded PERCENT XANTHINE OXIDASE INHIBITION?
100%

Consider the molecule shown here: CC(=O)Nc1ccc(-c2nn[nH]n2)cc1 [Compound FR] What is its recorded PERCENT XANTHINE OXIDASE INHIBITION?
40%
